FYI, the data here is from patent US12391641B2.

Measured Ki, listed per entry for reference.
system.tested: Human prostaglandin E2 receptor 4 (EP4) (Homo sapiens)
Construct: expressed in transfected cells; host or cells: HEK293 cells transduced with EP4 BacMam virus
Sequence (P35408 whole entry): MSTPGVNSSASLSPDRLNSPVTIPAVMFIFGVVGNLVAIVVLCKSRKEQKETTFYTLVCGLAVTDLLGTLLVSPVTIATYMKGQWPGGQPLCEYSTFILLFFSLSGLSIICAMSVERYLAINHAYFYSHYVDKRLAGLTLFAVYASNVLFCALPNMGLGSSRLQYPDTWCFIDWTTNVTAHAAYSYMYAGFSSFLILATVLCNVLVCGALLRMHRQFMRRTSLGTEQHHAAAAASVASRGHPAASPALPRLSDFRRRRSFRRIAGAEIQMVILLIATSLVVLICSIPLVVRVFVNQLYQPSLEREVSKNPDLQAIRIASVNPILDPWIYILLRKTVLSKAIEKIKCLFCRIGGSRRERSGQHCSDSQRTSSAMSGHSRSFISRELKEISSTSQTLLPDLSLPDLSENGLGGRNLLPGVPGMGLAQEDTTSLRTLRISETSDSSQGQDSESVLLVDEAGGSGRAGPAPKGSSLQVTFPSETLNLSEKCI
measurement.notes: cAMP Gs Functional Assay (HTRF cAMP dynamic-2), antagonism of PGE2
Type: cell-based
condition.details: HEK293 cells transfected with EP4 BacMam virus; PGE2 challenge at EC80 (7 nM); pIC50 converted to functional pKb with a modified Cheng Prussoff equation; read-out: Human EP4 fpKb (converted)
Write the numeric value and append its unit.

Guide cases for Ki, answers given:
CC(C)[C@@H](OCc1cccc(C(F)F)c1)C(=O)N[C@@H](C)c1ccc(C(=O)O)cc1: 1.82 nM
O=C(O)c1ccc(C2(NC(=O)C(OCc3ccc(C(F)(F)F)cc3)C3CCC3)CC2)cc1 (stereo not shown): 6.61 nM
CC(C)[C@@H](OCc1ccc(Cl)c(F)c1)C(=O)NC1(c2ccc(C(=O)O)cc2)CC1: 2.45 nM

Now consider the entry below.
**Query** Look up Ki for this compound: `CC(C)[C@@H](OCc1ccc(C(F)F)c(F)c1)C(=O)N[C@@H](C)c1ccc(C(=O)O)cc1`
**Result** 0.603 nM

* * *

system.tested: Human prostaglandin E2 receptor 4 (EP4) (Homo sapiens)
Construct: expressed in transfected cells; host or cells: HEK293 cells transduced with EP4 BacMam virus
measurement.notes: cAMP Gs Functional Assay (HTRF cAMP dynamic-2), antagonism of PGE2
Type: cell-based
condition.details: HEK293 cells transfected with EP4 BacMam virus; PGE2 challenge at EC80 (7 nM); pIC50 converted to functional pKb with a modified Cheng Prussoff equation; read-out: Human EP4 fpKb (converted)
Listing of recorded Ki by entry.
The reply should contain only the number, in nM.

Would you please look over these solved cases?
Cc1cc([C@H](C)NC(=O)[C@H](OCc2ccc(C(F)(F)F)cc2)C(C)C)ccc1C(=O)O: 25.7
CC(C)[C@@H](OCc1ccc(C(F)F)cc1)C(=O)NC1(c2ccc(C(=O)O)cc2)CC1: 0.398
CC(O[C@@H](C(=O)N[C@@H](C)c1ccc(C(=O)O)cc1)C(C)C)c1ccc(F)cc1 (mixture of isomers): 7.24
CC(C)[C@@H](OCc1ccc(C(F)F)nc1)C(=O)NC1(c2ccc(C(=O)O)cc2)CC1: 11.2

**Query** Give its Ki value. Item: `COCc1cccc(CO[C@@H](C(=O)N[C@@H](C)c2ccc(C(=O)O)cc2)C(C)C)c1`
**Result** 1.66

**Query** I am curious: what Ki value has been reported for `CC(C)[C@@H](OCc1cccc(OC(F)F)c1)C(=O)NC1(c2ccc(C(=O)O)cc2)CC1` ?
**Result** 0.389

**Query** Bench note: what Ki did `CC(C)[C@@H](OCc1ccc2c(c1)OC(F)(F)O2)C(=O)NC1(c2ccc(C(=O)O)cc2)CC1` show?
**Result** 0.479

**Query** Quick one: Ki for `CC(C)[C@@H](OCc1cccc(S(C)(=O)=O)c1)C(=O)NC1(c2ccc(C(=O)O)cc2)CC1` ?
**Result** 14.5

**Query** Bench note: what Ki did `CC(C)[C@@H](OCc1ccc(F)c(F)c1)C(=O)NC1(c2ccc(-c3nnn[nH]3)cc2)CC1` show?
**Result** 0.372

**Query** Fill in: Ki of `CC(C)[C@@H](OCc1ccc(F)cc1)C(=O)NC1(c2ccc(C(=O)O)cc2)CC1` is ___
**Result** 2.24

**Query** Report Ki for `CC(C)[C@@H](OCc1ccc(F)c(OC(F)F)c1)C(=O)N[C@@H](C)c1ccc(C(=O)O)cc1` please.
**Result** 0.224

**Query** Requested read-out: Ki. Entry: `CC(C)[C@@H](OCc1ccn2ccnc2c1)C(=O)N[C@@H](C)c1ccc(C(=O)O)cc1`
**Result** 34.7

**Query** I am curious: what Ki value has been reported for `CCS(=O)(=O)c1cccc(CO[C@@H](C(=O)NC2(c3ccc(C(=O)O)cc3)CC2)C(C)C)c1` ?
**Result** 7.24
